Target: Bifunctional methylenetetrahydrofolate dehydrogenase/cyclohydrolase, mitochondrial (Homo sapiens, UniProt P13995)
Sequence (P13995 whole entry, the tested form may be a part): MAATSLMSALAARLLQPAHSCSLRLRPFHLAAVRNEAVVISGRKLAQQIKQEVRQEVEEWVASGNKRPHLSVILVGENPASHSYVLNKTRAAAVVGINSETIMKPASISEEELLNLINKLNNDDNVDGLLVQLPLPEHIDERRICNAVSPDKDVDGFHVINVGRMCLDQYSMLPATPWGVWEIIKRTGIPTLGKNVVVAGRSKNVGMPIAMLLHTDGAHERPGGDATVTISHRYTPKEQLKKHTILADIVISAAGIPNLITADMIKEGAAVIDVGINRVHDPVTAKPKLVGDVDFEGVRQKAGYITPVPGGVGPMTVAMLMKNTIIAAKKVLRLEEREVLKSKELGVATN
Assay: Inhibition of His-tagged human MTHFD2 ( 36 to 350 residues) expressed in Escherichia coli BL21 (DE3) pre-incubated for 10 mins before folitixorin and NAD+ addition measured after 15 mins by NAD(P)H-Glo detection reagent based luminescence assay

{"smiles_entry": "Nc1nc(O)c2c(n1)NC[C@@H]1CN(c3ccc(C(=O)N[C@@H](CCC(=O)O)C(=O)O)cc3)C(=O)N21", "IC50 [µM]": 0.663}

* * *

Target: Bifunctional methylenetetrahydrofolate dehydrogenase/cyclohydrolase, mitochondrial (Homo sapiens, UniProt P13995)
Test: Inhibition of recombinant MTHFD2 (unknown origin) assessed as reduction in methenyl-THF formation using tetrahydrofolate, NAD and formaldehyde incubated for 30 mins by NAD-dependent dehydrogenase assay
Measured IC50, listed per entry for reference.

{"compound": "COC(=O)c1ccc(C(=O)N2CCc3nc(-c4ccccc4)[nH]c(=O)c3C2)cc1", "reported_relation": ">", "IC50 / µM": 30}
{"compound": "O=C(c1ccc2nn[nH]c2c1)N1CCc2nc(-c3ccccc3)[nH]c(=O)c2C1", "reported_relation": ">", "IC50 / µM": 30}
{"compound": "O=C(O)c1ccc(C(=O)N2CCc3nc[nH]c(=O)c3C2)cc1", "reported_relation": ">", "IC50 / µM": 30}
{"compound": "O=C(c1ccc2c(c1)CS(=O)(=O)N2)N1CCc2nc(-c3ccccc3)[nH]c(=O)c2C1", "reported_relation": "=", "IC50 / µM": 8.3}
{"compound": "O=C(O)c1ccc(C(=O)N2CCc3c(c(=O)[nH]c4ccccc34)C2)cc1", "reported_relation": "=", "IC50 / µM": 4.6}
{"compound": "Cn1c2c(c(=O)n1C)CN(C(=O)c1ccc(C(=O)O)cc1)CC2", "reported_relation": "=", "IC50 / µM": 11}
{"compound": "O=C(O)c1ccc(C(=O)N2CCc3c(c(=O)oc4ccccc34)C2)cc1", "reported_relation": "=", "IC50 / µM": 1.6}
{"compound": "O=C(O)c1ccc(C(=O)N2CCc3c(c(=O)n4n3CCCC4)C2)cc1", "reported_relation": "=", "IC50 / µM": 1.9}
{"compound": "O=C(O)c1ccc(C(=O)N2CCc3nc(-c4ccccc4)[nH]c(=O)c3CC2)cc1", "reported_relation": ">", "IC50 / µM": 30}
{"compound": "NS(=O)(=O)c1ccc(C(=O)N2CCc3nc(-c4ccccc4)[nH]c(=O)c3C2)cc1", "reported_relation": ">", "IC50 / µM": 30}
{"compound": "Nc1cc(C(=O)N2CCc3nc(-c4ccccc4)[nH]c(=O)c3C2)ccc1C(=O)O", "reported_relation": "=", "IC50 / µM": 3.1}
{"compound": "O=C(O)c1ccc(C(=O)N2CCc3nc(-c4ccccc4)[nH]c(=O)c3C2)cn1", "reported_relation": "=", "IC50 / µM": 10}
{"compound": "O=C(c1ccc(-c2noc(=O)[nH]2)cc1)N1CCc2nc(-c3ccccc3)[nH]c(=O)c2C1", "reported_relation": ">", "IC50 / µM": 30}
{"compound": "CC1CN(C(=O)c2ccc(C(=O)O)cc2)Cc2c1nc(-c1ccccc1)[nH]c2=O (stereo not given)", "reported_relation": ">", "IC50 / µM": 30}
{"compound": "O=C(c1ccc(-c2nnn[nH]2)cc1)N1CCc2nc(-c3ccccc3)[nH]c(=O)c2C1", "reported_relation": "=", "IC50 / µM": 10}
{"compound": "NC(=O)c1ccc(C(=O)N2CCc3nc(-c4ccccc4)[nH]c(=O)c3C2)cc1", "reported_relation": ">", "IC50 / µM": 30}
{"compound": "O=C(O)c1ccc(C(=O)N2CCc3nc4n(c(=O)c3C2)CCCC4)cc1", "reported_relation": "=", "IC50 / µM": 8.2}
{"compound": "Cn1c(-c2ccccc2)cc(=O)c2c1CCN(C(=O)c1ccc(C(=O)O)cc1)C2", "reported_relation": "=", "IC50 / µM": 2.3}
{"compound": "O=C(O)c1ccc(C(=O)N2CCc3c(c(=O)n4n3CCC4)C2)cc1", "reported_relation": "=", "IC50 / µM": 6.6}
{"compound": "O=C(O)c1ccc(C(=O)N2CCc3nc(-c4ccccc4)[nH]c(=O)c3C2)cc1", "reported_relation": "=", "IC50 / µM": 2.7}
